Listed next: entries and their corresponding self-splicing fitness (ln).
experiment: self-splicing fitness, log relative to wild type (ln ratio); higher = more splicing; Tetrahymena group I intron in knt gene, E. coli kanamycin selection, DiMSum; sequences stand for … in CUCUCU…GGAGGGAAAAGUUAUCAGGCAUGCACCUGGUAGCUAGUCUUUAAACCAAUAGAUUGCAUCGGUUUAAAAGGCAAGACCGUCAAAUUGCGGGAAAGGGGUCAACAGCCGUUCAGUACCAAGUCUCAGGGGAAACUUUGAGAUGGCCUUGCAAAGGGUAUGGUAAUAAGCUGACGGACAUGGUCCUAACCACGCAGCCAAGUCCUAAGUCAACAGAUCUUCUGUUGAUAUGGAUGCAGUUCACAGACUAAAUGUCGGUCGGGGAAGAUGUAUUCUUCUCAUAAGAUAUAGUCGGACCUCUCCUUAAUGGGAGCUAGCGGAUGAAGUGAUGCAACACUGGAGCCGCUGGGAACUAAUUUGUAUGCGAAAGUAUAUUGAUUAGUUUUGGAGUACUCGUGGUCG; conditions: 30 °C;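 also: selection with 25 µg/mL kanamycin versus none on LB agar overnight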
Write no unit; give the number alone.

GAAAAGCAAUAUUACGGAGU :: -3.18
AUCAAGCAAUAUUACGUUCG :: -1.5

QUERY: Report self-splicing fitness (ln) for `CUUAAGCAAUAUUACGUUAA` please.
RESULT: -3.97

QUERY: Report self-splicing fitness (ln) for `AUGCAGCAAUAUUACGGACU` please.
RESULT: -0.194

QUERY: Report self-splicing fitness (ln) for `AUAUAGCAAUAUUACGUAGG` please.
RESULT: -3.06

QUERY: Report self-splicing fitness (ln) for `GUUCAGCAAUAUUACGCUGU` please.
RESULT: -3.2

QUERY: Report self-splicing fitness (ln) for `GUCAAGCAAUAUUACGCCGC` please.
RESULT: -2.83

QUERY: Report self-splicing fitness (ln) for `GCCAAGCAAUAUUACGAUAA` please.
RESULT: -3.09

====

assay: self-splicing fitness, log relative to wild type (ln ratio); higher = more splicing; Tetrahymena group I intron in knt gene, E. coli kanamycin selection, DiMSum; sequences stand for … in CUCUCU…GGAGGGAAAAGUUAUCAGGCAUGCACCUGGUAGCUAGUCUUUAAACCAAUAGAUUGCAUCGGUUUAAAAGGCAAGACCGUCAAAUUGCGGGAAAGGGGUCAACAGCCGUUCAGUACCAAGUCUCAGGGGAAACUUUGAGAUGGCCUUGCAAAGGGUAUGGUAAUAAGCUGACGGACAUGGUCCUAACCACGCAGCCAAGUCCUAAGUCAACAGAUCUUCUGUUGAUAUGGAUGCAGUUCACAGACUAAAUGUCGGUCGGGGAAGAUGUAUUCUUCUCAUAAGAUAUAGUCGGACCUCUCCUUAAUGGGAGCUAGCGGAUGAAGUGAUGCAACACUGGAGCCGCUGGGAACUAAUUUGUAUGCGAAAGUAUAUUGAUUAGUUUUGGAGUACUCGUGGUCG; details: 30 °C
Listed next: entries and their corresponding self-splicing fitness (ln).
Write no unit; give the number alone.

Check out these entries, answers already filled in.
ACUGAGCAAUAUUACGAGAA :: -2.33
CUACAGCAAUAUUACGGAGA :: -4.39
UGGUAGCAAUAUUACGUGUC :: -2.13
GAGGAGCAAUAUUACGCCGG :: -3.44

QUERY: Report self-splicing fitness (ln) for `CGCCAGCAAUAUUACGAUUU` please.
RESULT: -2.75

QUERY: Report self-splicing fitness (ln) for `UUUCAGCAAUAUUACGGCUC` please.
RESULT: -1.77

QUERY: Report self-splicing fitness (ln) for `AAGCAGCAAUAUUACGGAUU` please.
RESULT: -0.723

QUERY: Report self-splicing fitness (ln) for `GUGUAGCAAUAUUACGGGGG` please.
RESULT: -3.23

QUERY: Report self-splicing fitness (ln) for `UGCUAGCAAUAUUACGAGUG` please.
RESULT: -1.98

QUERY: Report self-splicing fitness (ln) for `UGGAAGCAAUAUUACGAUAC` please.
RESULT: -3.37

QUERY: Report self-splicing fitness (ln) for `AGGCAGCAAUAUUACGCAGC` please.
RESULT: -4.21

QUERY: Report self-splicing fitness (ln) for `AUAAAGCAAUAUUACGCCUG` please.
RESULT: 0.243

QUERY: Report self-splicing fitness (ln) for `GUCUAGCAAUAUUACGUCCC` please.
RESULT: 0.0985

QUERY: Report self-splicing fitness (ln) for `AGAAAGCAAUAUUACGACAG` please.
RESULT: -2.36

QUERY: Report self-splicing fitness (ln) for `UCACAGCAAUAUUACGAACC` please.
RESULT: -1.05
